# procedureDetails: NCI Yeast Anticancer Drug Screen. Data for the bub3 strain (AID 167)
# studyConditions: S. cerevisiae bub3 mutant strain, at 33.0 µM, stronger effect = higher value
About 79,000 compounds went through this panel and 15% of them were active in at least one assay; those are over-represented in the sample as a whole.
Assign growth inhibition to each entry below.
I only need the number, in %, no unit after it.

CCC1(OC(=O)CN2CCN(CCO)CC2)C(=O)OCc2c1cc1n(c2=O)Cc2cc3ccccc3nc2-1 (centres undefined) yielded growth inhibition of -14

For reference, reported growth inhibition for COc1ccc(C(=O)C(CN(C)C)CN(C)C)cc1 stands at 11

Record Cc1cc(=O)oc2c(C)c3occc(=O)c3cc12 . Reported growth inhibition: 5

The recorded growth inhibition for entry CN(C)CCNC(=O)c1cccc2cc([N+](=O)[O-])ccc12 equals 51

Item: Cc1ccc(Cl)cc1NC(=O)OCCN(C)C(=O)Nc1cc(Cl)ccc1C | growth inhibition: -36

Noted for CCCCCCC(O)CNCc1ccnc2ccc(OC)cc12 (centres undefined) : its growth inhibition reads 44

The recorded growth inhibition for C[Si](C)(C)/C=C/CCNC(C#N)c1ccccc1 (centres undefined) is 43

compound COC(=O)CCC(NC(=S)N/N=C(\C)c1ccccn1)C(=O)OC (centres undefined) , growth inhibition observed: 77

Field growth inhibition (entry Cc1cc(-c2cc(C)c(O)c(C(C)(C)C)c2)cc(C(C)(C)C)c1O ) reads 40

growth inhibition measured on CC(=O)Nc1ccc2c(c1)Cc1cc(N=C3C=CC(=O)O3)ccc1-2 = 99

According to the records, this compound CCc1ccc2c(c1)N(CC(C)CN(C)C)c1ccccc1S2 (centres undefined) displays growth inhibition of 48

Sure, the documented growth inhibition for CCOC(=N)c1ccc(O)c(OC)c1 is 66

Consider CCCCN(CCCC)CCC(O)c1cc2c(Cl)cc(Cl)cc2c2cc(C(F)(F)F)ccc12 (centres undefined) . Its measured growth inhibition is 99

Per the records, this compound ( CCCCCCCCCCCCCCCCOP(=O)(O)OCC(N)C(=O)O (centres undefined) ) has growth inhibition equal to 98
